Tested on: MS2 coat protein
Assay Method Text: apparent KD of MS2 coat protein; designed switch direction (-1 OFF switch, 1 ON switch): -1; higher = weaker reporter binding
Condition Info: Eterna round: R95; input ligand: FMN 200 uM
Each entry gets -1 if its apparent KD of MS2 coat protein stays under 0.04 µM, and 1 if its apparent KD of MS2 coat protein is 0.04 µM or above.

| Item Sequence | Group Label |
| --- | --- |
| AAGAGUGCAGGAUAUACGUGAGAAAGGAGGAUGAGAGAAGGACAUGAGGAUCACCCAUGUAGAAGGGCAGAGAG [JR_Exclu2_Sub060] (puzzle: Exclusion 2) | -1 |
| AAGAAACAUGAGGAUCACCCAUGUGAGGAUAUGAAAAAUAAAAUAAAAGAAAUAAUAAUCAGAAGGCACAAAGG [Mat - Mod of Hog D8] (puzzle: Exclusion 1) | 1 |
| AAGUACCGUCACGAUAGUGAUGGUACAACAGGCAAAUGUACAUGAGGAUCACCCAUGUCCUCUUUUGCUCGUCUUGU [Sensor 3 - 35] (puzzle: Sensor v3, turn-off variant 2) | 1 |
| GAUAAGGUAGGAUAUACGAAUAAAUAGGGUAGUAAUAAUACACAUGAGGAUCACCCAUGUAGAAGGACCAAUAG [Mat - Exclusion 2 - Mod of my Tesla design - D41] (puzzle: Exclusion 2) | -1 |
| CAUGGAUGUGAGCCGCAUUACAUGAGGAUCACCCAUGUCAACAAGCUUUUUGCUUGUCUUACGCGGCGGCACCAGAA [Getelexe] (puzzle: Sensor v3, turn-off variant 1) | -1 |

* * *

Tested on: MS2 coat protein
Assay Method Text: apparent KD of MS2 coat protein; higher = weaker reporter binding
Condition Info: Eterna round: R107; input ligand: theophylline 20 uM

| Item Sequence | apparent KD of MS2 coat protein / nM |
| --- | --- |
| GUAUAUUAUAGAAGGAGCGUCGAAAAUGGGUAAACAUGAGGAUCACCCAUGUAAAGGGAACGACAGGUAGGUCGCUAUAAUAUAC [AstromonsSSArgB#14] | 233 |
| UCGCCCAGGUAGGCUUAAUGGGAUAUGGAAGGAGCGCUGAUGCCAGCAGGUAGGUCGCCAACGGACAUGAGGAUCACCCAUGUAC [Same State - Arginine A (Freestyle 4)] | 34.6 |
| GGGUACAUCGCGGCCGCCACUUGUGUAAAUACAUGAGGAUCACCCAUGUCGAUGGAGACAUCGGGAAGGACCGGGUGAUGUACCG | 802 |
| AAGACAUGAGGAUCACCCAUGUCGUGUGAACGAGGACCGGUACGGCCGCCACUCGUUUGAAAAUAAACGAAUGCGGCCUGGGAAA [Exclusion Tryp A GF1] | 13.4 |
| UGUUUGGUGCGCGAGUGUUGGAUAAUUGAUACCAGUGUAGAUGUGCGCCCUUGGCAGCGAAUCCUAACAUGAGGAUCACCCAUGU [5.Y] | 59.5 |
| UGCAUCAUAAUCAUGUAGGUGCUAGGUGAUACCAGCAUCGAAAGAUGCCCUUGGCAGCACCAACAUGAGGAUCACCCAUGUAAUA [(MT)''-(M)'-(T')-(Theo)-(Ms2)_Design1/22_1] | 186 |

* * *

System: MS2 coat protein
Assay Method Text: apparent KD of MS2 coat protein, switch OFF state (with FMN for OFF switches, without FMN for ON switches); designed switch direction (-1 OFF switch, 1 ON switch): -1; higher = weaker reporter binding
Condition Info: FMN input: 0 or 200 uM; Eterna round: R93 (includes R88 designs)
Below, each entry is listed alongside its reported apparent KD of MS2 coat protein.

| Item Sequence | Value Units | apparent KD of MS2 coat protein |
| --- | --- | --- |
| GAAAAGGCAGGAUAUGCAGGAUAUAGAAGGAGGAUAUAGAGACAUGAGGAUCACCCAUGUAGAAGGGCCAAAAG [salish99-ex2-11] | nM | 32.3 |
| UUAGAACAUGAGGAUCACCCAUGUGAGGAUAUGCAAUACUAGCGACAAGAUCGUUAUAGCAGAAGGCACGUAGU [JR_EXc001_Sub807] | nM | 64.5 |
| CAAAAACAUGAGGAUCACCCAUGUGAGGAUAUACGAAAGUAGAAGGCACUAAAACAAAACAGAAGGACAAAACA [Meechl Ex1 R2 m3] | nM | 24.6 |
| AGCUUCAGAGGAUAUACUUGAGUGAUAAAAGUCUGAUAACUACAUGAGGAUCACCCAUGUAGAAGGCUGUAGCA [Ex2 Design 168: Sub-opt 32] | nM | 46 |
| AAUAAGUGAGGAUAUGGAAAUAGUAGAUAAGAUUCCCUAAACCAGAAGGCACAUGAGGAUCACCCAUGUAAAUA [JR_Exc004_Sub005] | nM | 26.4 |
| AAAAAUGGAGGAUAUACAUGAGGAUCACCCAUGUGUGGGCAUACUGUGUCGGCGUCAGGUAGAAGGCCAAAAAA [Gilly Gone Silly 27 - Jieux - Exclusion 3] | nM | 47.8 |
| AAAGGACAAGGAUAUACAUGAGGAUCACCCAUGUAAAAAACAUAAUAAAAGAACUUAUGUAGAAGGUGUCCAAA [69%, Moding Meechl, 8] | nM | 177 |
| AAGAAACAUGAGGAUCACCCAUGUAAGGAUAUCUAAAAGAAAAGAAAAGAAAGAAGAAAGAGAAGGUACAAAGG [Nebhetepre Mentuhotep II] | nM | 81.3 |
| AUAGUACAUGAGGAUCACCCAUGUCAGGAUAUUGGAUAUGACAUGAAAAAAAUGUUAACGAGAAGGGACUAUAA [EX1 Malc#17] | nM | 80.7 |
| AAAAAGGGAGGAUAUGCAUACACAAAAAAAAAAAAAAAAAAACAUGAGGAUCACCCAUGUAGAAGGCCCAAAAA [Dora Explored 3 - Jieux - Exclusion 2] | nM | 28.9 |
| AAGAAACAUGAGGAUCACCCAUGUGAGGAUAUAGAAAAGAAAAGAAAAGAAAGAAGAACUAGAAGGCACAAAGG [Neferkare (IV) Khendu] | nM | 28.8 |
| CCCAUGUCAGGAUAUCAGUAGUAAAAAAAAAAAAUUACUACUGAGAAGGGACAUGAGGAUCACCCAUGUCCCUU [EX4 314: Super Stable 14] | nM | 14.2 |
| AAGAAGGCAGGAUAUACAAAAUAAAAGAAAAGAAAGAAAGAACAUGAGGAUCACCCAUGUAGAAGGGCUAAGAA [Merhotepre Ini] | nM | 39.3 |
| AAAAAACAUGAGGAUCACCCAUGUCAGGAUAUCUGUAUUCAAUCCUCGGAUUGAAUACAGAGAAGGGACAUAAA [Ex1: 605] | nM | 126 |
| AAUAAGUGAGGAUAUACUAAAGAAAUGAAAAGGGAUAAAGAACAUGAGGAUCACCCAUGUAGAAGGCACAAUAA ['Aper-'Anat] | nM | 37.2 |
| AAAAAACAUGAGGAUCACCCAUGUCAGGAUAUGCUCAACAAUAUUCCAAAAAAGAACGGUAGAAGGGACAGGAA [Bilbo Confounded 25 - Jieux - Exclusion 1] | nM | 22.3 |
| AAAAAGUCAGGAUAUGCGAAGGCGUCUGAUAGACGAGGCUAGCAGAAGGGACAUGAGGAUCACCCAUGUGAAAA [Mat - Mod of Nando 64% 1] | nM | 143 |
| CAGUACUGAGGAUAUACAUGAGGAUCACCCAUGUGAAAAAGCUACGAAAGUAGCACAUGUAGAAGGCAGUACUG [Ex3: 807] | nM | 281 |
| GUCCUACAUGAGGAUCACCCAUGUCAGGAUAUGCACCGGUUGCUUUAGACCGGUAAAGGCAGAAGGGACGGGUG [Orzadima] | nM | 19.8 |
| AAAAGACAUGAGGAUCACCCAUGUGAGGAUAUCGGAAAAGGAAAAAUAAAAAAGAAGACGAGAAGGCACACCAA [Mat - Exclusion 1 - Eli mod - D75] | nM | 48.2 |
| GGAAAACAUGAGGAUCACCCAUGUCAGGAUAUGUGAAAAAAAAAAAAAAGAAAAGAAAACAGAAGGGACAAAAG [amethyst 6] | nM | 23.2 |
| AAAAAACAUGAGGAUCACCCAUGUAAGGAUAUGCUAAAAAACGCAAAAAAAGCGAAUAGCAGAAGGUACAAAAG [Mat - Exclusion 1 - Eli mod - D81] | nM | 70.5 |
| AAGAACGCAGGAUAUAUUAAGGGACAAAGAAGGAAGAAUAAACAUGAGGAUCACCCAUGUAGAAGGGCGAAGAA [JR_Exclusion2_Sub4] | nM | 43.5 |
| AAAAUGUCAGGAUAUGUAAAAAAAAAAAAAAAAAAAAAAAUACAGAAGGGACAUGAGGAUCACCCAUGUCAGGG [EX4 390: Minimal 2] | nM | 79 |
| AGUCAUACAGGAUAUACAUGAGGAUCACCCAUGUAAAUCCUAAAAAGAAAAAACUCAUGUAGAAGGGUAUGACA [EX3 223: Super Stable 23] | nM | 39.2 |
